Reported values of IC50 for individual entries
system.name: Serine hydroxymethyltransferase, mitochondrial (Homo sapiens, UniProt P34897)
Sequence (P34897 whole entry): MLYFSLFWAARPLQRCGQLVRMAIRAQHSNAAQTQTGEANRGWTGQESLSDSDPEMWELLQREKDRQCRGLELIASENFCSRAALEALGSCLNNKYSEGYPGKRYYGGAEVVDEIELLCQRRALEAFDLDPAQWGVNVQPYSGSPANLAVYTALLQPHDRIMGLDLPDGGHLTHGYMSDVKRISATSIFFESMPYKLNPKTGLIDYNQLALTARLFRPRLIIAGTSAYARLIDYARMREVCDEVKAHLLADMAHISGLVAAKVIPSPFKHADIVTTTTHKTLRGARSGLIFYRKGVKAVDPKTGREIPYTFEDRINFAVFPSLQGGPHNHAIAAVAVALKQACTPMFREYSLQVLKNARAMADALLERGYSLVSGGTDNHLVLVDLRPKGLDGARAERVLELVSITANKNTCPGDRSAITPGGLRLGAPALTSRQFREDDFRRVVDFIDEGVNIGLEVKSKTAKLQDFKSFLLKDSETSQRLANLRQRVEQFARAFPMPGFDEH
test.name: Inhibition of His-tagged human recombinant SHMT2 expressed in Escherichia coli BLR(DE3) assessed as reduction in NADPH level using L-serine, THF and NADP+ incubated for 5 mins by SHMT2-MTHFD coupled reaction based fluorescence assay
conditions.used: read-out: IC50
observation.type: IC50

INSERT INTO results (compound, observed) VALUES
  ('CCCNC(=O)Nc1cn(CC(C)C)c(=O)c2ccccc12', '2.14 µM'),
  ('O=C(Nc1cccc2c1CCCC2)N1CCSc2ncccc21', '2.34 µM'),
  ('O=C(Nc1ccc2c(c1)OCCO2)N1Cc2ccccc2Oc2ncccc21', '3.09 µM'),
  ('Cc1ccc(-c2cc(Nc3cccc4cccnc34)nc(C)n2)cc1', '1.51 µM'),
  ('O=C1CN(S(=O)(=O)c2ccc3[nH]c4c(c3c2)CCCC4)c2ccccc2N1', '6.76 µM'),
  ('Cc1c(C(=O)NCc2ccco2)oc2c1-c1[nH]ncc1CC2', '6.92 µM'),
  ('O=C1CSC(c2ccccn2)N1c1ccc2ccccc2c1 (stereo unspecified)', '11 µM'),
  ('O=C(Nc1cc(F)c2nc(N3CCOCC3)ccc2c1)C1CCC1', '1.55 µM'),
  ('COc1ccc(Nc2nnc(-n3nc(C)cc3C)c3ccccc23)c(OC)c1', '3.47 µM'),
  ('Nc1ncccc1NC(=O)CCC(=O)O', '4.47 µM'),
  ('COC(=O)Cn1cc2c(n1)-c1c(oc(C(=O)N3CCCC3)c1C)CC2', '6.03 µM');
